- EXPERIMENTAL_TARGET: T1, Human IL22 (human, UniProt Q9GZX6 34-179)
- T1 construct: IL22 of the Biacore and cell assays
- T1 sequence: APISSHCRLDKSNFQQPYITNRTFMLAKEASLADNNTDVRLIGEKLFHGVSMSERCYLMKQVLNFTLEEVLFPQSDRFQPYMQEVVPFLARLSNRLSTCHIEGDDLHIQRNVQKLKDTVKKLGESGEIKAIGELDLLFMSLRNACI
- EXPERIMENT_SUMMARY: SPR (Biacore); Fab variant, human IL22
Can you tell me Kd for the items I'm about to list?
Numbers only, in pM.

1) 11041gL7 C91S gH11 D54E (Fab, V domains shown, V-regions only; also called 11041gL12gH17) VH: EVQLVESGGGLVQPGGSLRLSCAVSGFSLSSYAMIWVRQAPGKGLEWVGIIDIEGSTYYASWAKGRFTISRDNSKNTLYLQMNSLRAEDTAVYYCARDRFVGVDIFDPWGQGTLVTVSS VL: AIQLTQSPSSLSASVGDRVTITCQASEDIYTNLAWYQQKPGKAPKLLIYWASTLASGVPSRFSGSGSGTDFTLTISSLQPEDFATYYCQASVYGNSADSRYTFGGGTKVEIK ... 66.6
2) 11041gL7gH1 (Fab, V domains shown, V-regions only) VH: EVQLVESGGGLVQPGGSLRLSCAVSGFSLSSYAMIWVRQAPGKGLEWIGIIDIDGSTYYASWAKGRFTISRDSSKNTVYLQMNSLRAEDTAVYYCARDRFVGVDIFDPWGQGTLVTVSS VL: AIQLTQSPSSLSASVGDRVTITCQASEDIYTNLAWYQQKPGKAPKLLIYWASTLASGVPSRFSGSGSGTDFTLTISSLQPEDFATYYCQACVYGNSADSRYTFGGGTKVEIK ... 446
3) 11041gL1gH1 (Fab, V domains shown, Human Fab format (human kappa, human gamma-1 CH1); V-regions only) VH: EVQLVESGGGLVQPGGSLRLSCAVSGFSLSSYAMIWVRQAPGKGLEWIGIIDIDGSTYYASWAKGRFTISRDSSKNTVYLQMNSLRAEDTAVYYCARDRFVGVDIFDPWGQGTLVTVSS VL: AVVLTQSPSSLSASVGDRVTITCQASEDIYTNLAWYQQKPGKAPKLLIYWASTLASGVPSRFSGSGSGTDFTLTISSLQPEDFATYYCQACVYGNSADSRYTFGGGTKVEIK ... 642
4) 11041gL1 C91S S96AgH18 (Fab, V domains shown, V-regions only; also called 11041gL10gH18; gH18 = gH12 D54E) VH: EVQLVESGGGLVQPGGSLRLSCAVSGFSLSSYAMIWVRQAPGKGLEWISIIDIEGSTYYASWAKGRFTISRDNSKNTLYLQMNSLRAEDTAVYYCARDRFVGVDIFDPWGQGTLVTVSS VL: AVVLTQSPSSLSASVGDRVTITCQASEDIYTNLAWYQQKPGKAPKLLIYWASTLASGVPSRFSGSGSGTDFTLTISSLQPEDFATYYCQASVYGNAADSRYTFGGGTKVEIK ... 45.4

Attention now turns to another entry.
# query: Kd of entry 11041gL7 C91S gH8 D54E (Fab, V domains shown, V-regions only; also called 11041gL12gH15) VH: EVQLVESGGGLVQPGGSLRLSCAVSGFSLSSYAMIWVRQAPGKGLEWIGIIDIEGSTYYASWAKGRFTISRDSSKNTLYLQMNSLRAEDTAVYYCARDRFVGVDIFDPWGQGTLVTVSS VL: AIQLTQSPSSLSASVGDRVTITCQASEDIYTNLAWYQQKPGKAPKLLIYWASTLASGVPSRFSGSGSGTDFTLTISSLQPEDFATYYCQASVYGNSADSRYTFGGGTKVEIK 115
